FYI, the data here is from ChEMBL document CHEMBL1821714.

Biological target: P2X purinoceptor 7 (Homo sapiens, UniProt Q99572)
Sequence (Q99572 whole entry): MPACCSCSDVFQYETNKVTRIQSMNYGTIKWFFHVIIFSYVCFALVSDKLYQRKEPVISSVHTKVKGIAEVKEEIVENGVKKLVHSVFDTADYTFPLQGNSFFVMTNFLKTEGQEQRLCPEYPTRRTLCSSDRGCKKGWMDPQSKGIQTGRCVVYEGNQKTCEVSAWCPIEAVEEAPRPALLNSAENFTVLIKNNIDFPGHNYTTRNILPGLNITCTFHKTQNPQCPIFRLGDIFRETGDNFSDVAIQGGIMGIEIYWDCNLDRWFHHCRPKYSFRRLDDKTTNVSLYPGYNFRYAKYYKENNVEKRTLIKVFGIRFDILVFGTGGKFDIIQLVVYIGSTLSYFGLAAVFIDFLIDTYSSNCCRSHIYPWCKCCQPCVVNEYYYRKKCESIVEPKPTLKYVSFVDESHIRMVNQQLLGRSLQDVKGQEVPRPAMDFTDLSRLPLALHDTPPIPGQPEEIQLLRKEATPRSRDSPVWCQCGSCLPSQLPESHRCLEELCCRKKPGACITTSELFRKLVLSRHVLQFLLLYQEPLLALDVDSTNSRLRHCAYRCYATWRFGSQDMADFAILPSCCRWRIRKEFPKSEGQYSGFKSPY
Test: Antagonist activity at P2X7R expressed in LPS-activated human monocytes assessed as inhibition of ATP-induced IL1-beta release in presence of low serum concentration
Format: functional, cell-based
assay_readout: IC50 (µM)

Please report IC50 with P2X purinoceptor 7 (Homo sapiens, UniProt Q99572) for item `Cn1ccc(-c2ccc(Cl)c(C(=O)NCC3(O)CCCCCC3)c2)n1` .
0.238

Please report IC50 with P2X purinoceptor 7 (Homo sapiens, UniProt Q99572) for item `Cc1ccc(-c2ccc(Cl)c(C(=O)NCCc3ccccc3Cl)c2)nn1` .
0.25

* * *

target: P2X purinoceptor 7 (Homo sapiens, UniProt Q99572); assay: Antagonist activity at P2X7R expressed in LPS-activated human monocytes assessed as inhibition of ATP-induced IL1-beta release in presence of low serum concentration; assay type: functional, cell-based
pIC50: −log10 of the molar value.
assay_readout: pIC50

Examples with their reported pIC50 follow.
Please report pIC50 with P2X purinoceptor 7 (Homo sapiens, UniProt Q99572) for item `O=C(NCCc1ccccc1Cl)c1cc(-c2ccncc2)ccc1Cl` .
5.28

Please report pIC50 with P2X purinoceptor 7 (Homo sapiens, UniProt Q99572) for item CC(O)c1ccc(-c2ccc(Cl)c(C(=O)NCCc3ccccc3Cl)c2)nc1 (stereo not given) .
6.18

Please report pIC50 with P2X purinoceptor 7 (Homo sapiens, UniProt Q99572) for item `O=C(NCCc1ccccc1Cl)c1cc(-c2ccc(C(F)(F)F)cn2)ccc1Cl` .
5.34

a. O=C(NCCc1ccccc1Cl)c1cc(-c2cccnc2)ccc1Cl
b. COc1ccc(-c2ccc(Cl)c(C(=O)NCCc3ccccc3Cl)c2)nn1
Pick the one with the larger pIC50: a vs b Identify your selection by its label.
b
